Quick reference for IC50 among some molecules
Test system: A549
Assay: Cytotoxicity against human A549 cells by MTT assay
Format: functional, cell-based
reported.metric: IC50

>  <molecule>
Cc1n(CC(=O)N2CCC3(C)c4ccccc4N(Cc4ccccc4)C23)cc[n+]1CC(=O)c1ccccc1 (centres undefined)

>  <experimental.value>
> 20 µM

$$$$
>  <molecule>
Cc1n(CC(=O)N2CCC3(C)c4ccccc4N(Cc4ccccc4)C23)cc[n+]1CC(=O)c1ccc(Br)cc1 (centres undefined)

>  <experimental.value>
> 20 µM

$$$$
>  <molecule>
COc1ccc(C(=O)C[n+]2cn(CC(=O)N3CCC4(C)c5ccccc5N(Cc5ccccc5)C34)c3cc(C)c(C)cc32)cc1 (centres undefined)

>  <experimental.value>
7.4 µM

$$$$
>  <molecule>
Cc1nc2ccccc2n1CC(=O)N1CCC2(C)c3ccccc3N(C)C12 (centres undefined)

>  <experimental.value>
> 20 µM

$$$$

---

# pIC50 per record follows
Tested on: SW480
Test: Cytotoxicity against human SW480 cells by MTT assay
Format: functional, cell-based
pIC50: −log10 of the molar value.

>  <compound>
Cc1cc2c(cc1C)[n+](CC(=O)c1ccc(Br)cc1)cn2CC(=O)N1CCC2(C)c3ccccc3N(Cc3ccccc3)C12 (centres undefined)

>  <relation.sign>
=

>  <pIC50>
5.77

$$$$
>  <compound>
Cc1ccc(C[n+]2cn(CC(=O)N3CCC4(C)c5ccccc5N(C)C34)c3ccccc32)cc1 (centres undefined)

>  <relation.sign>
<

>  <pIC50>
4.70

$$$$
>  <compound>
Cc1n(CC(=O)N2CCC3(C)c4ccccc4N(Cc4ccccc4)C23)cc[n+]1CC(=O)c1ccccc1 (centres undefined)

>  <relation.sign>
<

>  <pIC50>
4.70

$$$$
>  <compound>
Cc1ccc(C[n+]2ccn(CC(=O)N3CCC4(C)c5ccccc5N(C)C34)c2C)cc1 (centres undefined)

>  <relation.sign>
<

>  <pIC50>
4.70

$$$$
>  <compound>
Cc1cc2c(cc1C)[n+](CC(=O)c1ccccc1)cn2CC(=O)N1CCC2(C)c3ccccc3N(C)C12 (centres undefined)

>  <relation.sign>
<

>  <pIC50>
4.70

$$$$
>  <compound>
CN1c2ccccc2C2(C)CCNC12 (centres undefined)

>  <relation.sign>
<

>  <pIC50>
4.70

$$$$
>  <compound>
Cc1n(CC(=O)N2CCC3(C)c4ccccc4N(Cc4ccccc4)C23)cc[n+]1CC(=O)c1ccc2ccccc2c1 (centres undefined)

>  <relation.sign>
=

>  <pIC50>
5.11

$$$$
>  <compound>
c1c[nH]cn1

>  <relation.sign>
<

>  <pIC50>
4.70

$$$$
>  <compound>
Cc1cc2c(cc1C)[n+](Cc1ccc3ccccc3c1)cn2CC(=O)N1CCC2(C)c3ccccc3N(C)C12 (centres undefined)

>  <relation.sign>
=

>  <pIC50>
5.34

$$$$
>  <compound>
CC12CCN(C(=O)Cn3c[n+](Cc4ccc(Br)cc4)c4ccccc43)C1N(Cc1ccccc1)c1ccccc12 (centres undefined)

>  <relation.sign>
=

>  <pIC50>
5.13

$$$$
>  <compound>
Cc1n(CC(=O)N2CCC3(C)c4ccccc4N(C)C23)c2ccccc2[n+]1CC(=O)c1ccccc1 (centres undefined)

>  <relation.sign>
<

>  <pIC50>
4.70

$$$$
>  <compound>
COc1ccc(C(=O)C[n+]2ccn(CC(=O)N3CCC4(C)c5ccccc5N(C)C34)c2)cc1 (centres undefined)

>  <relation.sign>
<

>  <pIC50>
4.70

$$$$
>  <compound>
Cc1nccn1CC(=O)N1CCC2(C)c3ccccc3N(Cc3ccccc3)C12 (centres undefined)

>  <relation.sign>
<

>  <pIC50>
4.70

$$$$
>  <compound>
COc1ccc(C(=O)C[n+]2cn(CC(=O)N3CCC4(C)c5ccccc5N(Cc5ccccc5)C34)c3ccccc32)cc1 (centres undefined)

>  <relation.sign>
=

>  <pIC50>
5.08

$$$$
>  <compound>
CN1c2ccccc2C2(C)CCN(C(=O)Cn3ccnc3)C12 (centres undefined)

>  <relation.sign>
<

>  <pIC50>
4.70

$$$$
>  <compound>
CN1c2ccccc2C2(C)CCN(C(=O)Cn3c[n+](Cc4ccc(Br)cc4)c4ccccc43)C12 (centres undefined)

>  <relation.sign>
<

>  <pIC50>
4.70

$$$$
>  <compound>
CC12CCN(C(=O)Cn3c[n+](Cc4ccccc4Br)c4ccccc43)C1N(Cc1ccccc1)c1ccccc12 (centres undefined)

>  <relation.sign>
=

>  <pIC50>
5.20

$$$$
>  <compound>
Cc1cc2c(cc1C)[n+](Cc1ccccc1Br)cn2CC(=O)N1CCC2(C)c3ccccc3N(C)C12 (centres undefined)

>  <relation.sign>
=

>  <pIC50>
5.14

$$$$
>  <compound>
Cc1ccc(C[n+]2cn(CC(=O)N3CCC4(C)c5ccccc5N(Cc5ccccc5)C34)c3ccccc32)cc1 (centres undefined)

>  <relation.sign>
=

>  <pIC50>
5.18

$$$$

Measured values drawn from ChEMBL document CHEMBL3745696 for this set.
